- Assayed Target: GAL4 DBD (1-147)-CfEcR(DEF)/VP16AD-βRXREF-LmUSPEF (Choristoneura fumiferana, UniProt O77240)
- Test Details: cell-based
- Condition Details: 3.3 uM ligand; RLU ligand treated / RLU DMSO treated cells; average of two wells
Under this convention, class 1 denotes Fold Induction, 27-63 Assay, 3.3 uM strictly below 1000 and class 0 denotes Fold Induction, 27-63 Assay, 3.3 uM at or above 1000.

# count of solved cases: 3
Molecule	Label
CCc1c(C(=O)NN(C(=O)c2ccccc2OC)C(C)(C)C)ccc2c1OCOC2	class 1
Cc1c(C(=O)NN(C(=O)c2cc(F)c(F)c(F)c2F)C(C)(C)C)ccc2c1CCCO2	class 0
Cc1c(C(=O)NN(C(=O)c2cc(F)c(Cl)cc2Cl)C(C)(C)C)ccc2c1CCCO2	class 0

### Prompt Would you kindly verify if Fold Induction, 27-63 Assay, 3.3 uM of COc1cccc(C(=O)NN(C(=O)c2ccc(Cl)cc2F)C(C)(C)C)c1C is strictly less than 1000?
### Response class 0

### Prompt Determine whether this molecule shows Fold Induction, 27-63 Assay, 3.3 uM lower than 1000 (ties excluded): COc1cc(C(=O)NN(C(=O)c2cc(C)cc(C)c2)C(C)(C)C)ccc1C
### Response class 1

----------
- Assayed Target: GAL4 DBD (1-147)-CfEcR(DEF)/VP16AD-βRXREF-LmUSPEF (Choristoneura fumiferana)
- Test Details: cell-based
- Condition Details: 3.3 uM ligand; RLU ligand treated / RLU DMSO treated cells; average of two wells
For each record, write down the corresponding Fold Induction, 27-63 Assay, 3.3 uM.

Compound	Fold Induction, 27-63 Assay, 3.3 uM
CCc1ccc(C(=O)NN(C(=O)c2ccccc2CC)C(C)(C)C)cc1 [RG-102592]	7
CC(C)(C)N(NC(=O)c1c(F)cccc1F)C(=O)c1cc(Cl)cc(Cl)c1 [RG-100801]	1341
COc1ccc(OC)c(C(=O)N(NC(=O)c2cccc(C)c2C)C(C)(C)C)c1 [RG-100763]	107
Cc1cc(C)cc(C(=O)N(NC(=O)c2cc3c(cc2Cl)OCO3)C(C)(C)C)c1 [RG-101171]	395
CCc1ccc(C(=O)NN(C(=O)c2cc(C)cc(C)c2)C(C)(C)C)cc1Cl [RG-101864]	1807
CCc1c(OC)cccc1C(=O)NN(C(=O)c1cc(C)cc(C)c1)C(C)(C)C=NNC(N)=O [RG-115653]	1

Hi! Can you tell me Fold Induction, 27-63 Assay, 3.3 uM for each of these compounds?
1. Cc1c(C(=O)NN(C(=O)c2cccc(F)c2)C(C)(C)C)ccc2c1CCCO2 [RG-115278]
2. CCc1ccc(C(=O)NN(C(=O)c2cccnc2OC)C(CC)C(C)(C)C)cc1 (stereo not shown) [RG-115837]
3. COc1cc(C)ccc1C(=O)N(NC(=O)c1cccc(OC)c1C)C(C)(C)C [RG-100769]
4. CCc1c(C(=O)NN(C(=O)c2ccccc2OC)C(C)(C)C)ccc2c1OCCO2 [RG-115244]
5. COc1ccccc1C(=O)N(NC(=O)c1ccc2c(c1C)OCOC2)C(C)(C)C [RG-100216]
6. CCc1c(C(=O)NN(C(=O)c2cccc(OC)c2)C(C)(C)C)ccc2c1OCCO2 [RG-100691]
7. Cc1cc(C)cc(C(=O)N(NC(=O)c2ccc3c(c2)OC(C)O3)C(C)(C)C)c1 (stereo not shown) [RG-101511]

### Response
1: 1250; 2: 1474; 3: 1595; 4: 2203; 5: 53; 6: 1378; 7: 1421

Look up Fold Induction, 27-63 Assay, 3.3 uM for the entries below, preserving their order.
1. CCc1c(C(=O)NN(C(=O)c2cccc(C)c2)C(C)(C)C)ccc2c1OCCO2 [RG-101036]
2. CCc1c(OC)cccc1C(=O)NN(C(=O)c1ccc(Cl)cc1OC)C(C)(C)C [RG-101218]
3. CCc1c(OC)cccc1C(=O)NN(C(=O)c1cc(OC)cc(OC)c1)C(C)(C)C [RG-100778]
4. CCc1ccc(C(=O)NN(C(=O)c2cc(C)cc(Cl)c2)C(C)(C)C)cc1 [RG-101774]
5. COc1cc(C(=O)N(NC(=O)c2cccc(OC)c2C)C(C)(C)C)ccc1C [RG-100768]

### Response
1: 1721; 2: 1097; 3: 2159; 4: 1807; 5: 1738

Take each entry in turn and give its Fold Induction, 27-63 Assay, 3.3 uM.
1. Cc1ccc([N+](=O)[O-])c(C(=O)N(NC(=O)c2ccc3c(c2C)CCCO3)C(C)(C)C)c1 [RG-115664]
2. CCc1c(OC)cccc1C(=O)NN(C(=O)c1cc(C)cc(C)c1)C(C)(C)C=NNC(=O)C(N)=O [RG-115597]
3. COc1cc(C(=O)N(NC(=O)c2ccc3c(c2C)CCCO3)C(C)(C)C)cc(OC)c1C [RG-115055]
4. CCc1ccc(C(=O)NN(C(=O)c2cc(C)c(C)c(Cl)c2)C(C)(C)C)cc1 [RG-101863]
5. Cc1c(C(=O)NN(C(=O)c2ccc(F)c(F)c2)C(C)(C)C)ccc2c1CCCO2 [RG-115416]
6. COc1ccccc1C(=O)N(NC(=O)c1ccc2c(c1C)CCCO2)C(C)(C)C [RG-115102]
7. Cc1cc(C)cc(C(=O)N(NC(=O)c2ccc3c(c2Br)OCCO3)C(C)(C)C)c1 [RG-101340]
8. COc1cccc(C(=O)NN(C(=O)c2cccnc2Cl)C(C)(C)C)c1C [RG-100127]

### Response
1928
2
4499
1705
2412
1154
1624
49

I have 3 compounds here; please give me Fold Induction, 27-63 Assay, 3.3 uM for each one.
1. CCc1c(OC)cccc1C(=O)NN(C(=O)c1cc(Cl)ccc1[N+](=O)[O-])C(C)(C)C [RG-115257]
2. CC(O)c1ccc(C(=O)NN(C(=O)c2cc(F)cc(F)c2)C(C)(C)C)cc1 (stereo not shown) [RG-100342]
3. CCc1c(C(=O)NN(C(=O)c2ccc(F)c(C(F)(F)F)c2)C(C)(C)C)ccc2c1OCCO2 [RG-115280]

### Response
1130
2
9

Please supply Fold Induction, 27-63 Assay, 3.3 uM for each of the following items, keeping them in order.
1. Cc1cc(C)cc(C(=O)N(NC(=O)c2ccc3c(c2)CCCC3)C(C)(C)C)c1 [RG-101887]
2. CCCCC(N(NC(=O)c1ccc(CC)cc1)C(=O)c1cccnc1OC)C(C)(C)C (stereo not shown) [RG-115842]
3. CCc1c(C(=O)NN(C(=O)c2cc(F)ccc2F)C(C)(C)C)ccc2c1OCCO2 [RG-115508]
4. CCc1c(OC)cccc1C(=O)NN(C(=O)c1cc(C)ccc1[N+](=O)[O-])C(C)(C)C [RG-115162]
5. Cc1c(C(=O)NN(C(=O)c2cc(F)c(F)cc2F)C(C)(C)C)ccc2c1CCCO2 [RG-115229]

### Response
1: 1142; 2: 1269; 3: 1195; 4: 1814; 5: 2829
